tested on: OVCAR-5 ovarian; assay: NCI-60 one-dose screen, 48 h (100 = growth as untreated, 0 = no growth, -100 = all killed); conditions: 10 µM unless noted
About 83,000 compounds went through this panel and 20% of them were active in at least one assay; those are over-represented in the sample as a whole.
EXPERIMENTAL READOUT: growth (%)
Please give a number only; it is taken to be in %.

O=C1C(=O)c2cccnc2-c2ncccc21 : -57.6
Oc1ccc(Br)cc1Sc1cc(Br)ccc1O : 105
CC(=O)c1ccc2c(c1)CCc1ccccc1-2 : 88.9

Exercise: What value of growth has been reported for the following compound? CC(/C=N/NC(N)=S)Cc1ccc(C(C)C)cc1 (stereo not given)
Solution: 86.6

Exercise: What value of measured growth is listed for "[Cl-].[Rh+3].c1ccc(-c2ccnc3c2ccc2c(-c4ccccc4)ccnc23)cc1.c1ccc(-c2ccnc3c2ccc2c(-c4ccccc4)ccnc23)cc1.c1ccc(-c2ccnc3c2ccc2c(-c4ccccc4)ccnc23)cc1" ?
Solution: -2.79

Exercise: Quick one: growth of "CN(C)CC(C)(CN(C)C)C(=O)/C=C/c1c(Cl)cccc1Cl" ?
Solution: 53.1

----------
test system: RXF 393 renal; test: NCI-60 one-dose screen, 48 h (100 = growth as untreated, 0 = no growth, -100 = all killed); details: 10 µM unless noted
The panel holds about 83,000 compounds, 20% with a hit somewhere; the sample as a whole holds those more often.
# growth per record follows
The figure you give is taken to be in %; do not add the unit.

CN(C)CCSC1=Nc2ccc(Cl)cc2C(c2ccccc2Cl)N(C)C1 (stereo not given) : 104
Nc1nc(N)c2cc(Sc3cccc(C(F)(F)F)c3)ccc2n1 : 42.8

Exercise: Could you share which growth value was measured for CC12CCC(O)CC1=CCC1C2CCC2(C)C3=NN=CC3CC12 (stereo not given) ?
Solution: 102

Exercise: Using the record for "CC(=O)N1CC(=O)NC1=S" , report its growth.
Solution: 104

Exercise: Any idea what growth was measured for CCCCCCCCC(=O)OCCCC(CCC(CCC1CCCO1)OC(=O)CCCCCCCC)OC(=O)CCCCCCCC (stereo not given) ?
Solution: 107

----------
test system: HCT-15 colon; assay: NCI-60 one-dose screen, 48 h (100 = growth as untreated, 0 = no growth, -100 = all killed); conditions: 10 µM unless noted
Compounds without any hit were thinned out: in the full panel of roughly 83,000, 20% have a hit. Active and inactive are the calls of the source. The calls were made as follows: active = growth percent below 10; inactive = the rest.
EXPERIMENTAL READOUT: growth

Below are worked cases with known answers.
Nc1nc2ncc(CNc3ccc(C(=O)NC(CCC(=O)NC(CCC(=O)NC(CCC(=O)NC(CCC(=O)NC(CCC(=O)O)C(=O)O)C(=O)O)C(=O)O)C(=O)O)C(=O)O)cc3)nc2c(=O)[nH]1 (stereo not given) : 103% (inactive)
CCCCCCC1N=C(N)N=C(N)N1c1cccc(Cl)c1 (stereo not given) : 84.2% (inactive)
OC(CSc1ccccc1)CN1CCN(c2ccc(Cl)cc2)CC1 (stereo not given) : 96.1% (inactive)
O=C1C=CC(=O)N1c1ccc(O)cc1 : 102% (inactive)

Kindly consider the entry below.
Exercise: Suppose we examine the compound "O=[N+]([O-])c1ccc2c(c1)Cc1ccccc1-2" ; what growth value has been reported?
Solution: 91% (inactive)
